# System: Escherichia coli TOP10;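 further: peptides expressed intracellularly from a pBAD plasmid library in pooled LB shake-flask culture, induced with 0.3% L-arabinose, DNA abundance read by NGS, three biological replicates, DESeq2 with apeglm shrinkage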
# experiment: shrunken log2 fold change of peptide-encoding DNA abundance (4.5 h post-induction vs induction); higher = less antimicrobial activity (less host growth inhibition)
# assay setup: time post-induction: 4.5 h; library: site-saturation at positions 5, 18, 19, 20
Decision: shrunken log2 fold change >= 0.03 yields 1.0, all other cases yield 0.0.

Hi team, for RRIRSRPPRLPRPRPRPDFHPRP , is the recorded shrunken log2 fold change at or above 0.03? 0.0

Hi team, for RRIRWRPPRLPRPRPRPLENPRP , is the recorded shrunken log2 fold change at or above 0.03? 0.0

Hi team, for RRIRERPPRLPRPRPRPSPHPRP , is the recorded shrunken log2 fold change at or above 0.03? 0.0

Hi team, for RRIRTRPPRLPRPRPRPLKCPRP , is the recorded shrunken log2 fold change at or above 0.03? 0.0

Hi team, for RRIRDRPPRLPRPRPRPGCKPRP , is the recorded shrunken log2 fold change at or above 0.03? 1.0

Hi team, for RRIRERPPRLPRPRPRPLRGPRP , is the recorded shrunken log2 fold change at or above 0.03? 1.0

Hi team, for RRIRIRPPRLPRPRPRPYTRPRP , is the recorded shrunken log2 fold change at or above 0.03? 0.0

Hi team, for RRIRSRPPRLPRPRPRPCWKPRP , is the recorded shrunken log2 fold change at or above 0.03? 0.0

Hi team, for RRIRERPPRLPRPRPRPAYCPRP , is the recorded shrunken log2 fold change at or above 0.03? 1.0

Hi team, for RRIRERPPRLPRPRPRPPNHPRP , is the recorded shrunken log2 fold change at or above 0.03? 0.0
